// provenance: patent US20150313990A1

biological target: recombinant soluble gp120 (isolate YU2) (HIV-1 isolate YU2), P35961; assay: SPR; biotinylated pV2α (235 RU) on neutravidin-coated CM3 chip, gp120 YU2 in solution at 2, 4, 8 and 16 nM; koff-KD distribution model
No end group written: not given here.
property.label: pKd
Remember, pKd is on a log scale: it is -log10 of the molar concentration.

For KVQKEYALFYELDIVPID (not fully specified) [biotinylated peptide pV2α (captured on neutravidin chip or biotin-captured in ELISA)] , what is its reported pKd? 9.05
